ASSAY TARGET: FGFR1 V561M (Homo sapiens, UniProt P11362, V561M)
Sequence (P11362 22-822 V561M): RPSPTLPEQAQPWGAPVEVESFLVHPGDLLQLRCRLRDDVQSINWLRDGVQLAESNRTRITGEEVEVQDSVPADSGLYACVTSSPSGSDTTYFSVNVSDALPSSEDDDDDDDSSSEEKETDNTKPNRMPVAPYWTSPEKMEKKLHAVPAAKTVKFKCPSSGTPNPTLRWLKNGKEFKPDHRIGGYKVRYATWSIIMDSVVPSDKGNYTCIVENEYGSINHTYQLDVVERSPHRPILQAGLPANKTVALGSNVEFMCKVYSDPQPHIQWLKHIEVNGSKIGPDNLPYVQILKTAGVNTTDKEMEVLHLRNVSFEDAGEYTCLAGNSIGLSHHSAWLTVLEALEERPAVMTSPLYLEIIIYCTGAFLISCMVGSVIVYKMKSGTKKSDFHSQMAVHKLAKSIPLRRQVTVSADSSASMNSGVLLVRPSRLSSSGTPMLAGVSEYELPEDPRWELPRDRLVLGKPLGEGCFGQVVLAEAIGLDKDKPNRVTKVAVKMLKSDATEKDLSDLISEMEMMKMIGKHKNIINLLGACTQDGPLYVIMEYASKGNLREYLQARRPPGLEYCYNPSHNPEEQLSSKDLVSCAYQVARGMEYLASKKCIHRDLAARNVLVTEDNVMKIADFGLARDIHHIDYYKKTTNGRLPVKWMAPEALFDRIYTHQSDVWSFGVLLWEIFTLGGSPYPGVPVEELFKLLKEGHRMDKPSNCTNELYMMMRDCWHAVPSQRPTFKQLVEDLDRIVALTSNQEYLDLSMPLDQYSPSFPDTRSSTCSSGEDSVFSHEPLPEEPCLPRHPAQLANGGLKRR
ASSAY OVERVIEW: Radiometric biochemical kinase assay
CONDITION CONTEXT: ATP 10 µM
READOUT TYPE: pIC50
Please note pIC50 is a logarithmic value: minus log10 of concentration in mol/L. Answer with that number alone.

Tell me measured pIC50 for Cc1ccc(Nc2ncc3c(n2)N(C)C(=O)N(c2cc(NC(=O)c4cccc(C(F)(F)F)c4)ccc2C)C3)cn1 [GNF-7] please.
5.12

###

ASSAY TARGET: FGFR2 N549H (Homo sapiens, UniProt P21802, N549H)
Sequence (P21802 22-821 N549H): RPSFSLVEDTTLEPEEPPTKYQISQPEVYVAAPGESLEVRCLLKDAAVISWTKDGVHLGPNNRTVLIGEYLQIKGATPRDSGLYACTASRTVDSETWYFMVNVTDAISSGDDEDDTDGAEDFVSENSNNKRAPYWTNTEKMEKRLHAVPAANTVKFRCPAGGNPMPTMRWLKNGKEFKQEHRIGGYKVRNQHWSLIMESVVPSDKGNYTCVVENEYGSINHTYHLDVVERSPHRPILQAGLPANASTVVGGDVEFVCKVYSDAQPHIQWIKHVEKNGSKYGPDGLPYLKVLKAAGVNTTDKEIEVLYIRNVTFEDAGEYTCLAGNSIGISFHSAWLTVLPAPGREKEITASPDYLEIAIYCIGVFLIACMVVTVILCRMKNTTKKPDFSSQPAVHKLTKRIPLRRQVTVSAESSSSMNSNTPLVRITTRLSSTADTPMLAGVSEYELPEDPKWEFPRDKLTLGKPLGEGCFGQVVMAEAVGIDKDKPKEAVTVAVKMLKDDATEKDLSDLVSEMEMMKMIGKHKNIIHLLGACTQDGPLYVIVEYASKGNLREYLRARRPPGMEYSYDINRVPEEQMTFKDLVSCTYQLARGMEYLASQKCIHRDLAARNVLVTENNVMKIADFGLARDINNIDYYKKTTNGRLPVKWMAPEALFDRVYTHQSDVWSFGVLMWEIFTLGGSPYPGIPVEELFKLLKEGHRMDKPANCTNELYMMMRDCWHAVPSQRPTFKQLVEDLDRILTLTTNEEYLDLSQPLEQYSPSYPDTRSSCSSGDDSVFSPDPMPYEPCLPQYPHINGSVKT
ASSAY OVERVIEW: Radiometric biochemical kinase assay
CONDITION CONTEXT: ATP 10 µM
READOUT TYPE: IC50
Write the numeric value and follow it with the unit.

Tell me measured IC50 for Cc1ccc(Nc2ncc3c(n2)N(C)C(=O)N(c2cc(NC(=O)c4cccc(C(F)(F)F)c4)ccc2C)C3)cn1 [GNF-7] please.
7 nM

###

ASSAY TARGET: FGFR1 WT (Homo sapiens, UniProt P11362)
Sequence (P11362 22-822): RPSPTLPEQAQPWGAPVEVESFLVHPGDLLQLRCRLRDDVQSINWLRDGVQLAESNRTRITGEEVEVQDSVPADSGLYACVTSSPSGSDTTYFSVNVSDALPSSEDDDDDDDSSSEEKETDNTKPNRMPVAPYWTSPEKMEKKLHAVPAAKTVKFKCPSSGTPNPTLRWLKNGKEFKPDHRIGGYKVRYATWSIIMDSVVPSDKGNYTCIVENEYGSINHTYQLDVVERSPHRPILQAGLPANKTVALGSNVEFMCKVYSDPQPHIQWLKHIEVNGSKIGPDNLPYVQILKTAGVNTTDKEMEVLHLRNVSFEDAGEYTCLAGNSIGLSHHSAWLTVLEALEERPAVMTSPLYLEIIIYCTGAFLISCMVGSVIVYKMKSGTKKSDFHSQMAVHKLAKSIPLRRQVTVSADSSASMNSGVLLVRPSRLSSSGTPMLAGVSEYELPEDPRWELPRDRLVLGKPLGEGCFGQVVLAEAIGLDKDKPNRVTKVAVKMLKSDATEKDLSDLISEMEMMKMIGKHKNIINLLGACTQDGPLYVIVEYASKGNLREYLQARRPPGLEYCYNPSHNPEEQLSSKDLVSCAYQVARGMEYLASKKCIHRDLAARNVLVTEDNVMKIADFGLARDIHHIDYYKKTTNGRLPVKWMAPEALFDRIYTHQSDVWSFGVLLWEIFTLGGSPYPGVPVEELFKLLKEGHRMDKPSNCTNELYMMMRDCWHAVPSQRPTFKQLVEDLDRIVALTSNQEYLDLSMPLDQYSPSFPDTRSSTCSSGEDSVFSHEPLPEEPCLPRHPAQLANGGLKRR
READOUT TYPE: IC50
Write the numeric value and follow it with the unit.

Tell me measured IC50 for Cc1ccc(Nc2ncc3c(n2)N(C)C(=O)N(c2cc(NC(=O)c4cccc(C(F)(F)F)c4)ccc2C)C3)cn1 [GNF-7] please.
11 nM

###

ASSAY TARGET: FGFR4 WT (Homo sapiens, UniProt P22455)
Sequence (P22455 22-802): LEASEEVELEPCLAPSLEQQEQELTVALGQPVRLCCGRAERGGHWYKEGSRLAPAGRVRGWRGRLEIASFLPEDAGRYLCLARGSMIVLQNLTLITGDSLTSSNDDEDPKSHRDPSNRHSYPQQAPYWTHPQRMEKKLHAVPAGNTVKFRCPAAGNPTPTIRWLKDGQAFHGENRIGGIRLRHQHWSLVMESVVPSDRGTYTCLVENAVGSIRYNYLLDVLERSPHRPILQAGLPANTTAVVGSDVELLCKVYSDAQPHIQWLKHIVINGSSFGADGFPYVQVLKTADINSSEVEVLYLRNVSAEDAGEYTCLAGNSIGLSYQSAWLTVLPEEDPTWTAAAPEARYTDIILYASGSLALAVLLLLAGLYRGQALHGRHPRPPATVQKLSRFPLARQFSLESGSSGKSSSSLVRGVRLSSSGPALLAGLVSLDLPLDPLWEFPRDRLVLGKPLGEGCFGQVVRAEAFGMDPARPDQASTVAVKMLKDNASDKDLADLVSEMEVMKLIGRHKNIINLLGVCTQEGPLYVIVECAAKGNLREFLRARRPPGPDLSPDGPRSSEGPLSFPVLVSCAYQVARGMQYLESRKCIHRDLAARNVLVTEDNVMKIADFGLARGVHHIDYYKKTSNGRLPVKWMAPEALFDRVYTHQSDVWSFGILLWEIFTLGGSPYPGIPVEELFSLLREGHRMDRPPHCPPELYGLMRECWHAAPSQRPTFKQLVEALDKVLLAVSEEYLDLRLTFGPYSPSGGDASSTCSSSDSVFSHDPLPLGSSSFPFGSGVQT
ASSAY OVERVIEW: Radiometric biochemical kinase assay
CONDITION CONTEXT: FGFR4 WT; radiometric; ATP 10 µM
READOUT TYPE: pIC50
Please note pIC50 is a logarithmic value: minus log10 of concentration in mol/L. Answer with that number alone.

Tell me measured pIC50 for Cc1ccc(Nc2ncc3c(n2)N(C)C(=O)N(c2cc(NC(=O)c4cccc(C(F)(F)F)c4)ccc2C)C3)cn1 [GNF-7] please.
8.40

All values here come from paper PMC8649585.
